Listing of Ki toward Beta-secretase 1 (Homo sapiens), each taken from a published source.
Provide only the numeric value, understood in nM.

CC1(C)C(=N)N[C@@]2(COCc3ccc(NC(=O)c4cc5ccccn5n4)cc32)CS1(=O)=O | 1200

Entry CN1C(=N)N[C@](C)(c2sc3c(-c4ccc(C5CC(=O)N5)cc4)cccc3c2F)CS1(=O)=O (stereo partly shown) , system Beta-secretase 1 (Homo sapiens): what Ki was measured? 184

Next molecule up: C[C@]1(c2sc(-c3cccc(-c4nnco4)c3)cc2Cl)NC(=N)c2cncnc2C1(F)F 33.3

---

Listing of Ki toward Beta-secretase 1 (Homo sapiens), each taken from a published source.
Provide only the numeric value, understood in nM.

Reference set (3 entries):
C[C@@]1(c2sc(-c3cncc(C#N)c3)cc2Cl)CS(=O)(=O)C2(CCC2)C(=N)N1 | 56
CN1C(=N)N[C@](C)(c2sc(-c3nnc(-c4ccncc4)o3)cc2Cl)CS1(=O)=O | 558
COc1cnc(C(=O)Nc2ccc(F)c([C@]3(C)CS(=O)(=O)C4(CCCCC4)C(=N)N3)c2)cn1 | 36

Query (compound): CN1C(=N)N[C@](C)(c2sc(-c3nnc(C4CC4)o3)cc2Cl)CS1(=O)=O ; field requested: Ki 882

Next compound up: CN1C(=N)N[C@](C)(c2sc(-c3cccc(-c4ccno4)c3)cc2Cl)CS1(=O)=O 6.5

Next compound up: COC[C@H]1C[C@@H]2[C@](c3cc(Oc4ncc(F)cc4F)ccc3F)(CO1)NC(=N)N(C)S2(=O)=O 20
